B1: VH:VL chains; a variant is named by its letters at X, in order (parent)
chain 1: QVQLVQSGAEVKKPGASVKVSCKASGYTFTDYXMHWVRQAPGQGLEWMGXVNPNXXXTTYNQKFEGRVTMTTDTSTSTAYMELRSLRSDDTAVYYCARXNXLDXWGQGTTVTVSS
chain 2: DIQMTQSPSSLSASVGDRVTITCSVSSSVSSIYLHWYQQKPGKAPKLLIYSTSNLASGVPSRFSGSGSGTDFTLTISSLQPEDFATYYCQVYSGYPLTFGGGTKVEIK

Variants of: B1
Assay: yeast display scFab, FACS + sequencing
Details: with MET
The other results are listed elsewhere or left out. The hit rate among all sequences tested is not known here.
value kind: antigen binding call

// solved cases for antigen binding call follow
mutation name	antigen binding call
VTAGDDGV	no binding
FRRGGAWY	binds
DRAGDSVD	no binding
YRRGAAGD	binds
YRRKGSVD	binds

Query :: Given DAEATDVA , state its recorded antigen binding call.
Result :: no binding

Query :: Given SAGGDYVF , state its recorded antigen binding call.
Result :: no binding

Query :: Given DATGGDVY , state its recorded antigen binding call.
Result :: no binding
